Source listed as paper PMC10485003.

# system.under.test: mut-HVGH DrIleRS2 (Deinococcus radiodurans, UniProt Q9RUP8, A59H/H61G/L60V)
# Construct: hexa-histidine tag (pET28b(+)) (N); made in house; host or cells: E. coli BL21(DE3)
# Sequence (Q9RUP8 1-1078 A59H/L60V/H61G): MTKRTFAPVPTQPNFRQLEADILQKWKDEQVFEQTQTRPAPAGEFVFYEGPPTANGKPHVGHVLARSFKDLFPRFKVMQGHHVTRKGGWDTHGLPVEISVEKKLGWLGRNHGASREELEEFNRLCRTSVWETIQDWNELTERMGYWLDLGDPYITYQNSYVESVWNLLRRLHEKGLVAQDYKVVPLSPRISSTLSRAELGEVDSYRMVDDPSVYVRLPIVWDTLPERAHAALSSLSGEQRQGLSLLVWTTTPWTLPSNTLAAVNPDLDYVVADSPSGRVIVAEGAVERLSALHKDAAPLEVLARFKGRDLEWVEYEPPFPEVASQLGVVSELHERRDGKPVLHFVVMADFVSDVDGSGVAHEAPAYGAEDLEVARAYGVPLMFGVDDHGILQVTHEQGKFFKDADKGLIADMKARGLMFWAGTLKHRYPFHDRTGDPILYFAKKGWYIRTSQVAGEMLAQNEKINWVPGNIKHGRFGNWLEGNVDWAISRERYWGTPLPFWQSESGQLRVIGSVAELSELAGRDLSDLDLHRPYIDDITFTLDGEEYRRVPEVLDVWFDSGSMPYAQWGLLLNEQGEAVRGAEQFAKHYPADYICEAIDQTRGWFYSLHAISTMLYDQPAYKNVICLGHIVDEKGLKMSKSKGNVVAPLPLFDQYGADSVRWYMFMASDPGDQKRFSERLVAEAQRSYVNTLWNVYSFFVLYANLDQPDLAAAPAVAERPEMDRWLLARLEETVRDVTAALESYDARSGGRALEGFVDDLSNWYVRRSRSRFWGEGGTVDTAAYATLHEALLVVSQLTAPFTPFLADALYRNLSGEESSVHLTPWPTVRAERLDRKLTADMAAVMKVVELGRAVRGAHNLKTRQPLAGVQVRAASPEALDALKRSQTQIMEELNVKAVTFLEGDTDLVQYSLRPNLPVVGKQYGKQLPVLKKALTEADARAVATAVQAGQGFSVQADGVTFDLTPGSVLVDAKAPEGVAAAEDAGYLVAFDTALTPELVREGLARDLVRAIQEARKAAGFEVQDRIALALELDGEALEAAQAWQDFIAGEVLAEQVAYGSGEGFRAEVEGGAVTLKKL
# experiment.description: biochemical
# measurement.parameters: KI (MUP)ATP, amino acid activation assay; ATP as variable substrate; average ± SD of three independent experiments
property: Ki (µM)

compound.string: C/C(=C\C(=O)OCCCCCCCCC(=O)O)C[C@@H]1OC[C@H](C[C@@H]2O[C@H]2[C@@H](C)[C@H](C)O)[C@@H](O)[C@H]1O
system.under.test: mut-HVGH DrIleRS2 (Deinococcus radiodurans, UniProt Q9RUP8, A59H/H61G/L60V)
property: Ki
observed.result: 9.3
